- System: HT-29
- protocol_description: Cytotoxicity against human HT-29 cells after 24 hrs by MTT assay
- Assay type: functional, cell-based
- conditions: HT-29, 24 h
experimental_readout: IC50 (µM)
Lab book: enter the figure in µM, no units written.

`CC(C)=CC[C@@H]1C[C@@]23C[C@@H](CC=C(C)C)C(C)(C)[C@](CC=C(C)C)(C(=O)C(C(=O)c4ccc(O)c(O)c4)=C2OC1(C)C)C3=O` on HT-29 gives IC50 = 5.1

----------
- Tested on: HT-29
- protocol_description: Cytotoxicity against human HT-29 cells at 5 uM after 24 hrs by MTT assay
- Format: functional
The source made the active and inactive calls. The rule behind the calls is not given here.
experimental_readout: Activity

>>> measured("CC(C)=CC[C@@H]1C[C@@]23C[C@@H](CC=C(C)C)C(C)(C)[C@](CC=C(C)C)(C(=O)C(C(=O)c4ccc(O)c(O)c4)=C2OC1(C)C)C3=O")
"Active"
>>> measured("CC(C)=CCC/C(C)=C/C[C@@H]1C[C@]2(CC=C(C)C)C(=O)[C@@](CC=C(C)C)(C(=O)C(C(=O)c3ccc(O)c(O)c3)=C2O)[C@@]1(C)CCC=C(C)C")
"Active"
>>> measured("C=C(C)[C@@H]1C[C@]23C[C@@H](CC=C(C)C)C(C)(C)[C@](CC=C(C)C)(C(=O)C(C(=O)c4ccc(O)c(O)c4)=C2O[C@H]1C=C(C)C)C3=O")
"57.7%"
